Biological target: T1, cynomolgus monkey GPVI extracellular domain fused at its C-terminus to human IgG1 Fc (GPVI-Fc) (cynomolgus monkey; human)
T1 construct: also called cyGPVI-2; cyGPVI
T1 sequence (chain, as listed by the source limits assumed): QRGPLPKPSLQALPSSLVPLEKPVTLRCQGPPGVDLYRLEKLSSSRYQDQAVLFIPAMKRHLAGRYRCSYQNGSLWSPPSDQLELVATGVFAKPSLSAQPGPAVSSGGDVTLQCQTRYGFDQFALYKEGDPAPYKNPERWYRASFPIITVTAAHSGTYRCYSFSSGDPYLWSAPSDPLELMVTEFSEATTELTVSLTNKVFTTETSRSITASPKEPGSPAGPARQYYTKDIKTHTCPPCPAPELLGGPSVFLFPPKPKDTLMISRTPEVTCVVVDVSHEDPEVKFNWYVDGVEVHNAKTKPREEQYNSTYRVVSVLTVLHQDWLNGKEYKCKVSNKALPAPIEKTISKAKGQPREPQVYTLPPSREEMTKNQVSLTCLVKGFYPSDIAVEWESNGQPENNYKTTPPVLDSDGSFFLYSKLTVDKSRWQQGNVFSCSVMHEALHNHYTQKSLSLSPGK
Experiment: ELISA, coated GPVI-Fc, Fab titrated

Binder	EC50, pM
Reference Control Antibody RefFab #1 (humanized GPVI antibody of WO2011073954A2, SANOFI) (Fab, V domains shown, Cloned into mammalian Fab expression vectors; a glycine-serine linker (G4S)2 was added to the C-terminus of the Fab heavy chain) VH: EVQLLESGPGLVAPSGSLSITCTVSGFSLTGYGVNWVRQPPGKGLEWLGMIWGDGSTDYQSTLKSRLSISKDNSKSQVFLKMNSLRTDDTARYYCARDLPMDYWGLGTSVTVSS VL: DIQMTQSPSSLSASVGGRVTITCKASQDINKYIAWYQHKPGKGPSLLIHYTSTLQPGVPSRFSGSGSGRDYSFSISNLQPEDIATYYCLQYANLLTFGGGTKLEIKR	580
Fab #3 comprising a modified heavy chain constant region (Fab, V domains shown, Human Fab from the Ylanthia library; produced in HKB11 cells; also called Fab #3 mod; HC) VH: QVQLVESGGGLVKPGGSLRLSCAASGFSFGDYYVSWIRQAPGKGLEWVSAIGGSGSAVQYAESVKGRFTISRDNAKNSLYLQMNSLRAEDTAVYYCARHYREFRWHYYYFDYWGQGTLVTVSS VL: QSVLTQPPSVSGAPGQRVTISCTGSSSNIGAGYDVHWYQQLPGTAPKLLIYGNSNRPSGVPDRFSGSKSGTSASLAITGLQAEDEADYYCQSHDLGAHVWVFGGGTKLTVLG	370
Fab #1 comprising a modified heavy chain constant region (Fab, V domains shown, Human Fab from the Ylanthia library; produced in HKB11 cells; also called Fab #1 mod; HC) VH: QVQLVQSGAEVKKPGASVKVSCKASGYTFTSHYMHWVRQAPGQGLEWMGLIEPSEGETEYAQRFQGRVTMTRDTSTSTVYMELSSLRSEDTAVYYCARDSSRSYPLGFDIWGQGTLVTVSS VL: QSVLTQPPSVSAAPGQKVTISCSGSSSNIGNNYVSWYQQLPGTAPKLLIYDNNKRPSGIPDRFSGSKSGTSATLGITGLQTEDEADYYCAAWDFRSSRWVFGGGTKLTVLG	530
Fab #4 comprising a modified heavy chain constant region (Fab, V domains shown, Human Fab from the Ylanthia library; produced in HKB11 cells; also called Fab #4 mod; HC) VH: QVQLVQSGAEVKKPGASVKVSCKASGGAFTSSYMHWVRQAPGQGLEWMGIIEPTGASTLYAQRFQGRVTMTRDTSTSTVYMELSSLRSEDTAVYYCARTGIALPLGFDLWGQGTLVTVSS VL: QSVLTQPPSVSAAPGQKVTISCSGSSSNIGNNYVSWYQQLPGTAPKLLIYDNNKRPSGIPDRFSGSKSGTSATLGITGLQTEDEADYYCAAWSTRFRWVFGGGTKLTVLG	500
